target-of-assay: Gal(a1-3)Gal(b1-4)[Fuc(a1-3)]GlcNAc(b1-2)Man(a1-3)[Gal(a1-3)Gal(b1-4)[Fuc(a1-3)]GlcNAc(b1-2)Man(a1-6)]Man(b1-4)GlcNAc(b1-4)GlcNAc
experiment-summary: glycan array binding signal (z-score within array); higher = stronger binding
condition-context: glycan notation: IUPAC condensed, linker removed
About 410 targets per protein were measured; listed, in parts, are those with the strongest signals and a random draw of the rest.
Quick reference for glycan array binding signal (z-score) among some binders

Reference set (2 entries):
binder	glycan array binding signal (z-score)
SAG3 (Toxoplasma gondii), Q9BJ39 (protein) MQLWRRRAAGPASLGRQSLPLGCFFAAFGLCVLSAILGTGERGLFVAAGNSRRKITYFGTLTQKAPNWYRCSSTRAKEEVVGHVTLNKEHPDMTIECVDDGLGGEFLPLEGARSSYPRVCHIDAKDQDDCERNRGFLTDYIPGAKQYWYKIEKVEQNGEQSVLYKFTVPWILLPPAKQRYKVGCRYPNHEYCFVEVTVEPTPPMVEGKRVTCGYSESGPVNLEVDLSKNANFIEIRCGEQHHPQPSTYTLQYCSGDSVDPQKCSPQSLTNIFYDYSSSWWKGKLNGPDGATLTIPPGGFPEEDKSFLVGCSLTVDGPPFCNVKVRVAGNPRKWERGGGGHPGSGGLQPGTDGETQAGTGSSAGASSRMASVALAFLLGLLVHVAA	4.74
F17aG (Escherichia coli), Q99003 (protein) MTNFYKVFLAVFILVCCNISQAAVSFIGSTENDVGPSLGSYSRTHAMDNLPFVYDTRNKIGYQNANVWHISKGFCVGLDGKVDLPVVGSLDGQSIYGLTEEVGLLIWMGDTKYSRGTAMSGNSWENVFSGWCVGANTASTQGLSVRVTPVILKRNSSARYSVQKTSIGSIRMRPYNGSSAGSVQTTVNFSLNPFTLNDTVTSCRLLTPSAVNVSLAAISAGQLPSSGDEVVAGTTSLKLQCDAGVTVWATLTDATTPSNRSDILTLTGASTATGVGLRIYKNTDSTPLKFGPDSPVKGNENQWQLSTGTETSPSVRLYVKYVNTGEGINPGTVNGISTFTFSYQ	-0.157

Would you kindly look at the next entry?
I would be grateful if you could share the reported glycan array binding signal (z-score) for FimA-N3 (Actinomyces oris) (protein) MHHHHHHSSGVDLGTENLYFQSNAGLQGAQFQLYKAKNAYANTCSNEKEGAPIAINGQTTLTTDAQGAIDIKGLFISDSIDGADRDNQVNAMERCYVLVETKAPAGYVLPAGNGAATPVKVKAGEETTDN .
-0.667
